Target: mouse PDGF-β receptor tyrosine kinase (Mus musculus)
Construct: amplify a fragment of DNA that codes for the intracellular tyrosine kinase domain
Sequence (P05622 599-961 limits assumed): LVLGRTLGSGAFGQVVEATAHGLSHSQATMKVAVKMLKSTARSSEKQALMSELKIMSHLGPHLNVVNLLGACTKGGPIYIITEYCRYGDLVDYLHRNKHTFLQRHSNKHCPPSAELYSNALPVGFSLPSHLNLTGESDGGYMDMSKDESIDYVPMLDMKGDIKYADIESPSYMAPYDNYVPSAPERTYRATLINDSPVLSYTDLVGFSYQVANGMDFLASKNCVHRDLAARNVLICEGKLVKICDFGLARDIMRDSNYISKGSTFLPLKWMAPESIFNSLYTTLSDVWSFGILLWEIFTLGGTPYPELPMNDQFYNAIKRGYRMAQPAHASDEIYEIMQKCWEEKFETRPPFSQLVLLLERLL
Experiment: PDGF receptor tyrosine kinase assay
pIC50: −log10 of the molar value.
Returns Fulfilled if the recorded pIC50 is greater than or equal to 5, and Not fulfilled otherwise.

Query: Determine whether measured pIC50 meets or exceeds 5 for CCN(CC)C(=O)c1ccc(Nc2ncc3nc(-c4c(Cl)cccc4Cl)c(=O)n(C)c3n2)cc1 [Compound 6]
Response: Fulfilled

---

Target: human FGF-1 (flg) receptor tyrosine kinase (Homo sapiens, UniProt P11362)
Construct: amplify a fragment of DNA that codes for the intracellular tyrosine kinase domain; made in house; host or cells: SF9 insect cells (baculovirus)
Sequence (P11362 478-767 limits assumed): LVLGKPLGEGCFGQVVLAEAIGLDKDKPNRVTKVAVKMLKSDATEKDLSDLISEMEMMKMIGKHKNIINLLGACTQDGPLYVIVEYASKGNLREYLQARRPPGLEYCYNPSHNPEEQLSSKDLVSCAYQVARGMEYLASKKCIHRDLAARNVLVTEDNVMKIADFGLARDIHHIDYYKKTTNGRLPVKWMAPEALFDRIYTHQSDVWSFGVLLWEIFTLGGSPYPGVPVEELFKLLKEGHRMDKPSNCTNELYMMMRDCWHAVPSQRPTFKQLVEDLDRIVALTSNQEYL
Test: FGF receptor tyrosine kinase assay
Assay type: biochemical
Conditions: @ 5 (unit μm); read-out: FGF % @ concentration
Returns class 1 if the recorded inhibition at 5 µM is greater than or equal to 40%, and class 0 otherwise.

Please review the following examples before continuing.
Query: Determine whether measured inhibition at 5 µM meets or exceeds 40% for `CCN(CC)CCOc1ccc(Nc2ncc3nc(-c4ccccc4)c(=O)n(C)c3n2)cc1`
Response: class 1

Query: Determine whether measured inhibition at 5 µM meets or exceeds 40% for `O=c1cnc2cnc(Nc3ccc(N4CCOCC4)cc3)nc2n1C1CCCC1`
Response: class 0

Query: Determine whether measured inhibition at 5 µM meets or exceeds 40% for `CCN(CC)C(=O)c1ccc(Nc2ncc3nc(-c4ccccc4)c(=O)n(C)c3n2)cc1`
Response: class 0

Others:
Query: Determine whether measured inhibition at 5 µM meets or exceeds 40% for `CCN(CC)CCOc1ccc(Nc2ncc3nc(-c4c(Cl)cccc4Cl)c(=O)n(C)c3n2)cc1`
Response: class 1

Query: Determine whether measured inhibition at 5 µM meets or exceeds 40% for `O=c1cnc2cnc(Nc3ccncc3)nc2n1C1CCCC1`
Response: class 0

Query: Determine whether measured inhibition at 5 µM meets or exceeds 40% for `CCN(CC)C(=O)c1ccc(Nc2ncc3nc(-c4c(Cl)cncc4Cl)c(=O)n(C)c3n2)cc1`
Response: class 0

---

readoutLabel: melting point

Here is how some compounds turned out for melting point.
Query: Return reported melting point; argument: `CCN(CC)C(=O)c1ccc(Nc2ncc3nc(-c4ccccc4)c(=O)n(C)c3n2)cc1`
Response: 250 to 252 °C

Query: Return reported melting point; argument: `O=c1cnc2cnc(Nc3ccncc3)nc2n1C1CCCC1`
Response: 236 to 238 °C

Query: Return reported melting point; argument: `CCn1c(=O)c(-c2cc(OC)cc(OC)c2)nc2cnc(Nc3ccncc3)nc21`
Response: 245 to 246.5 °C

Query: Return reported melting point; argument: `CCN(CC)C(=O)c1ccc(Nc2ncc3nc(-c4c(Cl)c(OC)nc(OC)c4Cl)c(=O)n(C)c3n2)cc1`
Response: 274 to 276 °C

Query: Return reported melting point; argument: `Cn1c(=O)c(-c2ccccc2)nc2cnc(Nc3ccc(N4CCOCC4)cc3)nc21`
Response: 302 to 304.5 °C

Query: Return reported melting point; argument: `CCN(CC)CCOc1ccc(Nc2ncc3nc(-c4ccccc4)c(=O)n(C)c3n2)cc1`
Response: 162 to 165 °C

Others:
Query: Return reported melting point; argument: `CN1CCN(c2ccc(Nc3ncc4[nH]c(=O)c(=O)n(C5CCCC5)c4n3)cc2)CC1`
Response: 266 to 270 °C

Query: Return reported melting point; argument: `O=c1cnc2cnc(Nc3ccc(N4CCOCC4)cc3)nc2n1C1CCCC1`
Response: 182 to 184 °C
